Test system: RARb homodimer (NR concentration 270 nM)
Assay explanation: PBM binding z-score (relative to random genomic background probes); higher = stronger binding; sequences stand for … in GC…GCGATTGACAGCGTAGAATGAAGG
Would you kindly list PBM binding z-score for each of these sequences?
Answers are plain numbers.

| Record sequence | PBM binding z-score |
| --- | --- |
| GCTCGGAGGACATGGTCAGAGCTTTGTCCGTAGA | 0.143 |

List the reported PBM binding z-score of each sequence below.
1. TTACCAAGGTGAAAGGTCGTTCATGCACGCCTTG
2. CGAACTAGGTCATTGACTGGACAGTGAATAGTAA
3. ATCGAAAGGTCGAGCTGAGTATAGAGAAAGGGAA
4. TAGCCTAGGTCAGATCGGGCCAGTTTACGCTATA

2.8
2.56
1.8
1.83

Fill in PBM binding z-score for each of the 6 sequences listed.
1. GCTATTAGTTGAAAGGGCAACCAAATGATTCTCG
2. TCGAGTAGGTTAGTCGGGGCCTTCAGCCAACATA
3. ATATGTAGGTTAGCTGGGGTCATTCAGACTAGGC
4. CGTCAAAGTTCAAAGTAACGTAACAGAAAGCAGC
5. CCTTACGGGTCAAGCTTATAGCACGGGTGGTACG
6. GCAGACAGGTGAAACGCAGGTAACTCAAGGTGGC

1: 2.12; 2: -0.149; 3: 3.87; 4: 3.42; 5: 2.82; 6: 0.0427

====

Tested on: RARa:RXR (NR concentration 270 nM, RXRa partner concentration 90 nM)
Assay explanation: PBM binding z-score (relative to random genomic background probes); higher = stronger binding; sequences stand for … in GC…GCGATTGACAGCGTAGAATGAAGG
Think of 4 as a floor: if PBM binding z-score stands on it or above, it is yes; beneath it, no.

| Record sequence | Cat |
| --- | --- |
| CCTAGTTGGTCAAGGTCACACTCGCTATAGGTAC | yes |

Decide: is the reported value of PBM binding z-score for `GGAACGAGGGCATTCGAGTTGATCGCATGGCGAT` equal to or greater than 4?
no

Given the entry `ATCGAAAGGTCGTGAGGGGAGTATACAGAAAGGC` , answer whether its PBM binding z-score meets or surpasses 4.
no

Given the entry `TAGCCTAGGTCATGGACCAGTATACCACGCGAAC` , answer whether its PBM binding z-score meets or surpasses 4.
no

# bool: PBM binding z-score of `CGTCCCAGGTCAGAGAGGTCAGTGAATGCCGAGT` >= 4
yes

Hello, I need to know if `ATCTCTAGGTAAAGTTCAGTGATAGATCGATAGA` has measured PBM binding z-score not below 4. Thanks!
no

====

Test system: PPARg:RXRa IVT, anti-PPARg (NR concentration 270 nM, RXRa partner concentration 90 nM)
Assay explanation: PBM binding z-score (relative to random genomic background probes); higher = stronger binding; sequences stand for … in GC…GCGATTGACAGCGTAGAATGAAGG
Measurement name: PBM binding z-score
Numbers only.

Worked examples, 10 sequences total:
| Record sequence | PBM binding z-score |
| --- | --- |
| ACTATTAGTTGAGACGAGGGCAACCTATAGGTTG | 0.486 |
| CCTAGTTCGTCAAGGTCACACACGCTATAGGTAC | 2.33 |
| ATCTCTAGGGAAGACTCAGTTCAGTGAAGAACGC | 0.0201 |
| TCTCGGAGGACACGAAAGGTCCGAGCTCGACATC | -0.219 |
| CGAACTAGGTCATTCAGGACAGTGAATACATTGA | 7.91 |
| TGAATGAGGTTAAAGATCAGTGAACGTGGCGTCG | 3.44 |
| CTCGACAGGTCGTGCTCAGGTGAGTATACCAAAC | 0.534 |
| AGAACGAGGGTAATGAGTTGATAGCACGGGTGGC | 1.31 |
| CCGACTGGGCCAAAGGTCATTGATTCCAATGCTC | 5.72 |
| ACTCGGAGGACAAAGGTCATAGCTACGCCAGTGA | 4.45 |

For every item below, please supply its PBM binding z-score.
1. TATACAGGGTCAAAGGCCAGAGTGCGAATGTCGA
2. CAGCCAAGGTCAGGGCCAGTATAGGAGGAACGTT

4.9
2.1

====

System: RXRa homodimer (NR concentration 180 nM)
Assay explanation: PBM binding z-score (relative to random genomic background probes); higher = stronger binding; sequences stand for … in GC…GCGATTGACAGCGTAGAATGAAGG
Parameter threshold = 4. Response is YES when PBM binding z-score meets or exceeds it, else NO.

| Record sequence | Cat |
| --- | --- |
| TCTGCTAGGTCAGTTGGTAAGCTAACGAGCTGCC | NO |
| TCTAGTTGGTCAAAGGTCACACGCTCGAAATGCG | YES |
| TAGCCTAGGTCATCGGGCCAGTATAGTACGCATC | NO |
| AGAATGAGCTTATACGTAGATCAGGGAAGAAAGT | NO |

Test whether the sequence `CTCGAAAGGTCGTGCTCAAGTGAGTATACCAAAC` records PBM binding z-score of 4 or higher.
YES

Determine whether this sequence has PBM binding z-score no lower than 4: `TAGCCTAGGTCAGATCGGGCCAGGATACGCTATA`
NO

====

Test system: RXRa homodimer (NR concentration 180 nM)
Assay explanation: PBM binding z-score (relative to random genomic background probes); higher = stronger binding; sequences stand for … in GC…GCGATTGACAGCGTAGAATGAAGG
Task for the reader: assign each of the following sequences its reported PBM binding z-score.
Numbers only.

Example sequences with recorded PBM binding z-score:
| Record sequence | PBM binding z-score |
| --- | --- |
| GCTTGTAGATCAACGTTAAGAAAGACTAAGCTAA | -0.405 |
| GCTAGTTGGTCAGTAAAAGGTCACTCACCGGTCG | 4.21 |
| CATACAGGGTCAGCTAGGCCCGAGTAGGGACGGC | 4.55 |
| TCTTGTAGAGCAAAGGTTAAGAAAGCCGAAGCCT | 2.6 |
| GCTTACGGGTCAAAGGTTATTGCATGAATAGAAT | 9.29 |
| TCTTTTAGATCAAGCAGGTTAAGAAAGCCTGAGT | 0.49 |
| CCAGTCAGGTGAAAGGTAACTCAGTCTGGTACGC | 1.42 |
| ATATGTAGGCTATCGGGTCATTCAGTTTGCGCAT | 2.08 |

// for each sequence in input: emit PBM binding z-score
1. CGTCAAAGTTCCACTAAGGTAACGTAAAGCACGC
2. ACTAGCAGGCCAAGTTTGGATCACTCAAACAAAG
3. CGTCAAAGTTCAAGGTAACGTGACAGAAAGCAGC
4. CCTACTGGGCCCTTCAGAGGTCATTGATCATATG

1: 0.357; 2: -0.454; 3: 4.26; 4: 3.49

====

Test system: PPARg:RXRa 90nM:30nM, anti-RXR (NR concentration 90 nM, RXRa partner concentration 30 nM)
Assay explanation: PBM binding z-score (relative to random genomic background probes); higher = stronger binding; sequences stand for … in GC…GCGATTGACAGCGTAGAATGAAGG
Would you mind telling me the reported PBM binding z-score of each entry?
Give bare numbers.

Illustrative cases are given below, each with its answer.
| Record sequence | Readout value |
| --- | --- |
| GCGACTGGGGCATCAGCAGGTTACTATAACTTAA | 0.594 |
| CGACCGAGGGCATGAGTTGATAGCAAATGCCGAT | -0.438 |
| ATCGAAAGGTCGAGGAGAGTATAGAGAAAGGGAA | 2.09 |
| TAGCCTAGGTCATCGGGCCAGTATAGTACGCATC | 2.16 |
| GATACAGGGTCAGCTAGAGGCTAGAGTATGGAAA | 1.89 |
| TCATATAGGTAAACAGGTGAAAGGCCGTAAGTTA | 5.29 |

Please give PBM binding z-score for each item listed below.
1. CCGAGCAGGCCAATCTGGGTCACTCAAGGCTTGA
2. CCAACTAGGTCAAAGGTCAAAGTCGAGCCAACCA
3. AGAACGAGGGCATGCTGAGTTGATAGCAGAGTAG
4. TCTTGTAGATCAACAGGCGGTTAAGAAAGATCGA

[1.21, 12.7, 0.416, 1.81]

Record PBM binding z-score for all entries; do not skip any.
1. CCTTACGGGTCATTGACAGGTTATAGCATTTGGA
2. CGAACTAGGGCATCCAGGACAGTGAATACATTGA

2.75
1.5

====

Tested on: THRa:RXRa (NR concentration 90 nM, RXRa partner concentration 90 nM)
Assay explanation: PBM binding z-score (relative to random genomic background probes); higher = stronger binding; sequences stand for … in GC…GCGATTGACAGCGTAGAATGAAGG
// 0 (no) strictly below 2 in PBM binding z-score; 1 (yes) otherwise

Would you please look over these solved cases?
| Record sequence | System tested | Cat |
| --- | --- | --- |
| CGTCCAAGGTCAAGGTCAGAGAAAGAGACTCGAA | THRa:RXRa (NR concentration 90 nM, RXRa partner concentration 90 nM) | 1 (yes) |
| GCCACTGGGGCAAAGCAGGTTACCATAAGGTTGG | THRa:RXRa (NR concentration 90 nM, RXRa partner concentration 90 nM) | 1 (yes) |
| TAGCCTAGGTCAAGGGCCAGTATACCACGCGAAC | THRa:RXRa (NR concentration 90 nM, RXRa partner concentration 90 nM) | 1 (yes) |
| CTACCAAGGTGAACAAGGTCCTTGATTACTATTC | THRa:RXRa (NR concentration 90 nM, RXRa partner concentration 90 nM) | 1 (yes) |

Determine whether measured PBM binding z-score meets or exceeds 2 for `ATCTCTAGATAACCAAGTTCAGTGAATGCCGAAC`
0 (no)

# check: PBM binding z-score of `CCTACTGGGCCACCAAAGGTCATTGATTCAGTGA` is greater than or equal to 2
1 (yes)

API: above_or_equal(metric=PBM binding z-score, cutoff=2) for item `TCAGCTAGGTCAACGATGGTCAGCTAATCTGCTA`
1 (yes)

Given the entry `CCTAGTTGGTCAAGGTCACACGCGCTATAGGTAC` , answer whether its PBM binding z-score meets or surpasses 2.
1 (yes)

Check this sequence for PBM binding z-score at or above 2: `TCTCGGAGGACACGAAGGTCAGAGCATTCCAGAG`
1 (yes)

Kindly determine if PBM binding z-score recorded for `TCTAGCAGGCCAGAGGGTAACTCAAGAGGTACGG` is above or exactly 2.
0 (no)

Identify whether the reported PBM binding z-score of the following sequence is 2 or greater: `ACTATTAGTTGAGCCGAGGGCAACCGATAGGTTG`
1 (yes)

Evaluate `ATCTCTACGTAAAAGTTCAGTGAATCCCGAGGAT` : PBM binding z-score at minimum 2?
0 (no)
